# Lookup of reported growth keyed by entry
Test system: MCF7 breast
Assay: NCI-60 one-dose screen, 48 h (100 = growth as untreated, 0 = no growth, -100 = all killed)
Details: 10 µM unless noted
Compounds without any hit were thinned out: in the full panel of roughly 83,000, 20% have a hit.
Lab book: enter the figure in %, no units written.

See these solved cases before continuing.
# COMPOUND, MEASUREMENT_UNITS, growth
data = [
    ("CC(Nc1ncnc2ccc(-c3ccc4oc(N)nc4c3)cc12)c1ccccc1 (centres undefined)", "%", -73.1),
    ("NS(=O)(=O)c1cccc(Nc2nc(SCC(=O)c3ccc(F)cc3)nc3ccccc23)c1", "%", 2.1),
    ("C[C@@H]1CN(c2ccc3ncc(C#Cc4cncc(C(=O)Nc5ccc(CN6CCN(C)CC6)c(C(F)(F)F)c5)c4)n3n2)C[C@@H](C)O1", "%", -93.1),
    ("Nc1cc2ccccc2c(=O)n1NC(=O)c1ccccc1", "%", 53.8),
    ("O=C(Nc1ccc(Br)cc1)Nc1ccc(-c2ccc3c(c2)NC(=O)/C3=C\\c2ccc[nH]2)cc1", "%", 8.33),
    ("O=c1ccc(Cn2c(C(F)(F)F)cc3c(Cl)ncnc32)c[nH]1", "%", 82.4),
    ("O=C(Nc1ccc(-c2ccc3c(c2)NC(=O)/C3=C\\c2ccc[nH]2)cc1)Nc1ccc(Cl)c(Cl)c1", "%", 9.81),
    ("COc1ccc(NC(=O)Cn2c(/C=C/c3cccc(OC)c3)nc3ccccc3c2=O)cc1", "%", 30.4),
]

Alright, here's another compound for you.
Given CC1=NN(C2=NC(=O)C(CC(=O)Nc3ccccc3C(F)(F)F)S2)C(c2ccc(N(C)C)cc2)C1 (centres undefined) , respond with its growth.
23.4

====

Tested on: LOX IMVI melanoma
Experiment: NCI-60 one-dose screen, 48 h (100 = growth as untreated, 0 = no growth, -100 = all killed)
Conditions: 10 µM unless noted
Compounds without any hit were thinned out: in the full panel of roughly 83,000, 20% have a hit.
Classes based on growth: L: < -40%; M: ≥ -40% and < 50%; H: ≥ 50%

Examples with answers:
# COMPOUND, LABEL
measured = [
    ("O=C(NNC(=S)NCCc1ccccc1)c1ccc(OCc2nc3ccc(Cl)cc3[nH]2)cc1", "H"),
    ("O=C(NNC(=O)c1ccc(OCc2nc3ccc(Cl)cc3[nH]2)cc1)Nc1ccc(Cl)c(C(F)(F)F)c1", "M"),
    ("COc1cncc(-c2ccc3ncnc(N4CCc5ccc(Cl)cc54)c3c2)c1", "M"),
    ("COc1ccc(NC(=O)Nc2nc3ccc([N+](=O)[O-])cc3s2)cc1", "M"),
    ("Cc1ccc(Cl)cc1NC(=O)N/C(N)=N/c1nc2ccccc2s1", "L"),
]

Which bin, given its growth, does `CN1CCN(c2ccc3c4c(cccc24)C(=O)N(c2cccc(-c4nn(-c5ccccc5)cc4-c4nc5ccccc5s4)c2)C3=O)CC1` occupy?
H

Field: class (growth) — entry: `COc1ccc(-c2nc3ccc(-c4nnc(SCc5ccccc5)o4)cc3[nH]2)cc1`
L

In plain terms, what class is CCN1C(=O)N(CC)C2NNC(Sc3c(C(=O)O)c4ccccc4n(CCC(C)C)c3=O)=NC21 (centres undefined) ?
L

Into which bin does this compound go? `O=C1N/C(=N\c2nccs2)S/C1=C\c1ccc([N+](=O)[O-])cc1`
M

Taken from PubChem BioAssay (NCI).
